biological target: pre-existing anti-drug antibodies (ADA) present in human sera; assay: ELISA pre-existing ADA binding assay, confirmatory setup, test molecule coated, 20 human sera
metric: % positives of total tested serum samples (%)
Provide only the numeric value, understood in %.

binder | assay.value
PRO2919 (scFv) scFv: DIQMTQSPSSLSASVGDRVTITCQASESIYSSLAWYQQKPGKAPKLLIYLASTLASGVPSRFSGSGSGTDFTLTISSLQPEDFATYYCQSTDYTTSTHRNSFGTGTKVTVLGGGGGSGGGGSGGGGSGGGGSEVQLVESGGGRVQPGGSLRLSCAASGFSFSTTYYMCWVRQAPGKGLEWIGCTNTASSVRTYYATWAKGRFTISRDNSKNTVYLQMNSLRAEDTATYYCARDMGFADYALNLWGQGTLVTVSS | 5
PRO2922 (scFv) scFv: DIQMTQSPSSLSASVGDRVTITCQASESIYSSLAWYQQKPGKAPKLLIYLASTLASGVPSRFSGSGSGTDFTLTISSLQPEDFATYYCQSTDYTTSTHRNSFGTGTKVTVLGGGGGSGGGGSGGGGSGGGGSEVQLVESGGGRVQPGGSLRLSCAASGFSFSTTYYMCWVRQAPGKGLEWIGCTNTASSVRTYYATWAKGRFTISRDNSKNTVYLQMNSLRAEDTAVYYCARDMGFADYALNLWGQGTLVTVSS | 10
PRO2924 (scFv) scFv: DIQMTQSPSSLSASVGDRVTITCQASESIYSSLAWYQQKPGKAPKLLIYLASTLASGVPSRFSGSGSGTDFTLTISSLQPEDFATYYCQSTDYTTSTHRNSFGTGTKVTVLGGGGGSGGGGSGGGGSGGGGSEVQLVESGGGLVQPGGSLRLSCAASGFSFSTTYYMCWVRQAPGKGLEWIGCTNTASSVRTYYATWAKGRFTISRDNSKNTVYLQMNSLRAEDTAVYYCARDMGFADYALNLWGQGTQVTVSS | 75
PRO2918 (scFv) scFv: DIQMTQSPSSLSASVGDRVTITCQASESIYSSLAWYQQKPGKAPKLLIYLASTLASGVPSRFSGSGSGTDFTLTISSLQPEDFATYYCQSTDYTTSTHRNSFGTGTKVTVLGGGGGSGGGGSGGGGSGGGGSEVQLVESGGGRVQPGGSLRLSCAASGFSFSTTYYMCWVRQAPGKGLEWIGCTNTASSVRTYYATWAKGRFTISRDNSKNTVYLQMNSLRAEDTATYYCARDMGFADYALNLWGQGTQVTVSS | 25
PRO2921 (scFv) scFv: DIQMTQSPSSLSASVGDRVTITCQASESIYSSLAWYQQKPGKAPKLLIYLASTLASGVPSRFSGSGSGTDFTLTISSLQPEDFATYYCQSTDYTTSTHRNSFGTGTKVTVLGGGGGSGGGGSGGGGSGGGGSEVQLVESGGGLVQPGGSLRLSCAASGFSFSTTYYMCWVRQAPGKGLEWIGCTNTASSVRTYYATWAKGRFTISRDNSKNTVYLQMNSLRAEDTATYYCARDMGFADYALNLWGQGTQVTVSS | 55
PRO2230 (scFv) scFv: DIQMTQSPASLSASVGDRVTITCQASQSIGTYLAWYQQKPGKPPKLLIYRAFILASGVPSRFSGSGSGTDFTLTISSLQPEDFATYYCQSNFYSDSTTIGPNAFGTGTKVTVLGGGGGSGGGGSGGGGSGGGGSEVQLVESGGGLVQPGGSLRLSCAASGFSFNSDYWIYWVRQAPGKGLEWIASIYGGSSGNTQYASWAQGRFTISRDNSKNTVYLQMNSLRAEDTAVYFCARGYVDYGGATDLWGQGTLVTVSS | 90
PRO2907 (scFv) scFv: DIQMTQSPASLSASVGDRVTITCQASQSIGTYLAWYQQKPGKPPKLLIYRAFILASGVPSRFSGSGSGTDFTLTISSLQPEDFATYYCQSNFYSDSTTIGPNAFGTGTKVTVLGGGGGSGGGGSGGGGSGGGGSEVQLVESGGGRVQPGGSLRLSCAASGFSFNSDYWIYWVRQAPGKGLEWIASIYGGSSGNTQYASWAQGRFTISRDNSKNTVYLQMNSLRAEDTAVYFCARGYVDYGGATDLWGQGTLVTVSS | 15
PRO2925 (scFv) scFv: DIQMTQSPSSLSASVGDRVTITCQASESIYSSLAWYQQKPGKAPKLLIYLASTLASGVPSRFSGSGSGTDFTLTISSLQPEDFATYYCQSTDYTTSTHRNSFGTGTKVTVLGGGGGSGGGGSGGGGSGGGGSEVQLVESGGGSVQPGGSLRLSCAASGFSFSTTYYMCWVRQAPGKGLEWIGCTNTASSVRTYYATWAKGRFTISRDNSKNTVYLQMNSLRAEDTATYYCARDMGFADYALNLWGQGTQVTVSS | 25

Shift focus to the following entry.
Please report the recorded % positives of total tested serum samples for PRO2990 (scFv) scFv: DIQMTQSPSSLSASVGDRVTITCQASESIYSSLAWYQQKPGKAPKLLIYLASTLASGVPSRFSGSGSGTDFTLTISSLQPEDFATYYCQSTDYTTSTHRNSFGTGTKVTVLGGGGGSGGGGSGGGGSGGGGSEVQLVESGGGSVQPGGSLRLSCAASGFSFSTTYYMCWVRQAPGKGLEWIGCTNTASSVRTYYATWAKGRFTISRDNSKNTVYLQMNSLRAEDTATYYCARDMGFADYALNLWGQGTTVTVSS .
25

All values here come from patent US20240084039A1.
